Kindly supply the reported IC50 values for the records listed here.
target: KAT-6A (Homo sapiens (Human)); test: KAT-6A biochemical inhibition assay (SAMDI mass spectrometry)
Sequence (Q92794 other isoform, or with tags, fused parts or gaps): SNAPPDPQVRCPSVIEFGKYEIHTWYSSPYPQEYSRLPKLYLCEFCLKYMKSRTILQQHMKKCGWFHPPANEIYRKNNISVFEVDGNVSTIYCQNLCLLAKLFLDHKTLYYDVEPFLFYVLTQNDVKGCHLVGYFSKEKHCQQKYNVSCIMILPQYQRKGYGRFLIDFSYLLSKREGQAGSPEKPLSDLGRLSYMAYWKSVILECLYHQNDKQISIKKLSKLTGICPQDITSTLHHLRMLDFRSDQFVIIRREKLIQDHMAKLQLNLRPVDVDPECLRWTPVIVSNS

Enquiry: Entry under review: `CNC(=O)N1CC(CS(=O)(=O)NNC(=O)c2cc(-c3cn(C)cn3)cc(Cl)c2F)C1` . Reported IC50?
Return: 10 to 50 µM

Enquiry: Entry under review: Cn1cnc(-c2cc(Cl)c(F)c(C(=O)NNS(=O)(=O)CC3CCCC(NC(=O)OC(C)(C)C)C3)c2)c1 (stereo not drawn) . Reported IC50?
Return: < 10 µM

Enquiry: Entry under review: CCN(C)C(=O)N(C)C1CC(CS(=O)(=O)NNC(=O)c2cc(-c3cn(C)cn3)cc(Cl)c2F)C1 (stereo not drawn) . Reported IC50?
Return: 50 to 100 µM

Enquiry: Entry under review: `Cc1nc(-c2cc(Cl)c(F)c(C(=O)NNS(=O)(=O)CC3CCOCC3)c2)cn1C` . Reported IC50?
Return: 10 to 50 µM

Enquiry: Entry under review: `Cn1cc(-c2cc(Cl)c(F)c(C(=O)NNS(=O)(=O)CC3CCCCC3)c2)nn1` . Reported IC50?
Return: < 10 µM

Enquiry: Entry under review: `Cn1cnc(-c2cc(Cl)c(F)c(C(=O)NNS(=O)(=O)c3cc(O)ccc3F)c2)c1` . Reported IC50?
Return: < 10 µM

Enquiry: Entry under review: `Cn1cc(-c2cc(Cl)c(F)c(C(=O)NNS(=O)(=O)CC3CCOCC3)c2)nn1` . Reported IC50?
Return: 10 to 50 µM

Enquiry: Entry under review: `Cn1cnc(-c2cc(Cl)c(F)c(C(=O)NNS(=O)(=O)c3cscn3)c2)c1` . Reported IC50?
Return: < 10 µM

Enquiry: Entry under review: `Cn1cnc(-c2cc(Cl)c(F)c(C(=O)NNS(=O)(=O)Cc3ccn(C)n3)c2)c1` . Reported IC50?
Return: < 10 µM

Enquiry: Entry under review: `CN1CCN([C@H]2C[C@@H](CS(=O)(=O)NNC(=O)c3cc(-c4cn(C)cn4)cc(Cl)c3F)C2)C1=O` . Reported IC50?
Return: < 10 µM

Enquiry: Entry under review: Cn1cnc(-c2cc(Cl)c(F)c(C(=O)NNS(=O)(=O)CC3CCCC(NC(=O)Cc4ccccn4)C3)c2)c1 (stereo not drawn) . Reported IC50?
Return: < 10 µM

Enquiry: Entry under review: CCNC(=O)N1CCC(C)C(CS(=O)(=O)NNC(=O)c2cc(-c3cn(C)cn3)cc(Cl)c2F)C1 (stereo not drawn) . Reported IC50?
Return: 10 to 50 µM

Enquiry: Entry under review: Cn1cnc(-c2cc(Cl)c(F)c(C(=O)NNS(=O)(=O)CC3CCCN(C(=O)C4CCC4)C3)c2)c1 (stereo not drawn) . Reported IC50?
Return: < 10 µM

Enquiry: Entry under review: `CNC(=O)N1CC[C@@H](CS(=O)(=O)NNC(=O)c2cc(-c3cn(C)cn3)cc(Cl)c2F)C1` . Reported IC50?
Return: 10 to 50 µM

Enquiry: Entry under review: `COc1ccc(CN(C)C(=O)N[C@H]2C[C@@H](CS(=O)(=O)NNC(=O)c3cc(-c4cn(C)cn4)cc(Cl)c3F)C2)cc1` . Reported IC50?
Return: < 10 µM

###

Kindly supply the reported pIC50 values for the records listed here.
target: KAT-7 (Homo sapiens (Human)); assay: KAT-7 biochemical inhibition assay (SAMDI mass spectrometry)
Sequence (O95251 other isoform, or with tags, fused parts or gaps): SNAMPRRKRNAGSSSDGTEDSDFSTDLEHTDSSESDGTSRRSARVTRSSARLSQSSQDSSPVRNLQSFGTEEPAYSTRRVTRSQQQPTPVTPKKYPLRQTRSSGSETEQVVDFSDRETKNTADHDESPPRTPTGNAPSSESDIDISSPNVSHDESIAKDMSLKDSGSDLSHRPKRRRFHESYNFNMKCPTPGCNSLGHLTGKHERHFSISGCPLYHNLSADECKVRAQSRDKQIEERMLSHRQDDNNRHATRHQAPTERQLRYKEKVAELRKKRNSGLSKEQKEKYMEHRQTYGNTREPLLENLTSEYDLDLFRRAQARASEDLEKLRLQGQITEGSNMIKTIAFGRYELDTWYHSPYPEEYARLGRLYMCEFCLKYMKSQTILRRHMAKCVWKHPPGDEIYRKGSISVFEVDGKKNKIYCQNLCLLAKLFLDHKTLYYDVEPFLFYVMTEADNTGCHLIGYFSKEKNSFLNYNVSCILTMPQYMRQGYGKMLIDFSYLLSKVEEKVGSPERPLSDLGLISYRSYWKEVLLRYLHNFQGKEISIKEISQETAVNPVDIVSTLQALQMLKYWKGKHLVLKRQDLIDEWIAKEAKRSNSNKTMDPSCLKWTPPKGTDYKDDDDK
pIC50: −log10 of the molar value.

Enquiry: Entry under review: Cc1cc(-c2cn(C(C)C)cn2)cc(C(=O)NNS(=O)(=O)C2CCCCC2)c1F [Compound I-139] . Reported pIC50?
Return: > 5.00

Enquiry: Entry under review: CC1CCCC(CS(=O)(=O)NNC(=O)c2cc(-c3cn(C)cn3)cc(Cl)c2F)C1 (stereo not drawn) [Compound I-302] . Reported pIC50?
Return: > 5.00

Enquiry: Entry under review: CCNC(=O)N1[C@H]2CC[C@@H](CS(=O)(=O)NNC(=O)c3cc(-c4cn(C)cn4)cc(Cl)c3F)[C@@H]1CC2 [Compound I-260] . Reported pIC50?
Return: > 5.00

Enquiry: Entry under review: CCC(=O)N1CCC(CS(=O)(=O)NNC(=O)c2cc(-c3cn(C)cn3)cc(Cl)c2F)C1 (stereo not drawn) [Compound I-73] . Reported pIC50?
Return: > 5.00

Enquiry: Entry under review: COCC(=O)N1CCCC(CS(=O)(=O)NNC(=O)c2cc(-c3cn(C)cn3)cc(Cl)c2F)C1 (stereo not drawn) [Compound I-35] . Reported pIC50?
Return: > 5.00

Enquiry: Entry under review: COc1ccc(CN(C)C(=O)N2CC(CS(=O)(=O)NNC(=O)c3cc(-c4cn(C)cn4)cc(Cl)c3F)C2)cc1 [Compound I-202] . Reported pIC50?
Return: > 5.00

Enquiry: Entry under review: Cn1cnc(-c2cc(Cl)c(F)c(C(=O)NNS(=O)(=O)CC3CN(S(=O)(=O)C4CC4)C3)c2)c1 [Compound I-185] . Reported pIC50?
Return: > 5.00

Enquiry: Entry under review: Cn1cnc(-c2cc(Cl)c(F)c(C(=O)NNS(=O)(=O)C[C@H]3CC[C@@H](NS(C)(=O)=O)CC3)c2)c1 [Compound I-248] . Reported pIC50?
Return: > 5.00

Enquiry: Entry under review: CCn1c(-c2cc(Cl)c(F)c(C(=O)NNS(=O)(=O)C3CCCCC3)c2)cnc1C [Compound I-61] . Reported pIC50?
Return: 4.30 to 5.00

Enquiry: Entry under review: CN(C(=O)OC(C)(C)C)C1CCC(CS(=O)(=O)NNC(=O)c2cc(-c3cn(C)cn3)cc(Cl)c2F)CC1 (stereo not drawn) [Compound I-296] . Reported pIC50?
Return: > 5.00

Enquiry: Entry under review: Cn1cnc(-c2cc(Cl)c(F)c(C(=O)NNS(=O)(=O)C3CCCCC3)c2)c1 [Compound I-2] . Reported pIC50?
Return: > 5.00

Enquiry: Entry under review: Cn1cnc(-c2cc(Cl)c(F)c(C(=O)NNS(=O)(=O)C[C@H]3CC[C@H](NC(=O)c4cccnc4)CC3)c2)c1 [Compound I-241] . Reported pIC50?
Return: > 5.00

Enquiry: Entry under review: CC(C)C(=O)N[C@H]1CC[C@H](CS(=O)(=O)NNC(=O)c2cc(-c3cn(C)cn3)cc(Cl)c2F)CC1 [Compound I-201] . Reported pIC50?
Return: > 5.00

Enquiry: Entry under review: CCNC(=O)N[C@H]1CC[C@H](CS(=O)(=O)NNC(=O)c2cc(-c3cn(C)cn3)cc(Cl)c2F)CC1 [Compound I-109] . Reported pIC50?
Return: > 5.00

Enquiry: Entry under review: CN(C)C(=O)N[C@H]1C[C@H](CS(=O)(=O)NNC(=O)c2cc(-c3cn(C)cn3)cc(Cl)c2F)C1 [Compound I-180] . Reported pIC50?
Return: > 5.00
